Sourced from patent US20250101098A1

testedOn: T1, human nectin-4 protein expressed on the surface of cells (human, UniProt Q96NY8 32-510)
T1 sequence: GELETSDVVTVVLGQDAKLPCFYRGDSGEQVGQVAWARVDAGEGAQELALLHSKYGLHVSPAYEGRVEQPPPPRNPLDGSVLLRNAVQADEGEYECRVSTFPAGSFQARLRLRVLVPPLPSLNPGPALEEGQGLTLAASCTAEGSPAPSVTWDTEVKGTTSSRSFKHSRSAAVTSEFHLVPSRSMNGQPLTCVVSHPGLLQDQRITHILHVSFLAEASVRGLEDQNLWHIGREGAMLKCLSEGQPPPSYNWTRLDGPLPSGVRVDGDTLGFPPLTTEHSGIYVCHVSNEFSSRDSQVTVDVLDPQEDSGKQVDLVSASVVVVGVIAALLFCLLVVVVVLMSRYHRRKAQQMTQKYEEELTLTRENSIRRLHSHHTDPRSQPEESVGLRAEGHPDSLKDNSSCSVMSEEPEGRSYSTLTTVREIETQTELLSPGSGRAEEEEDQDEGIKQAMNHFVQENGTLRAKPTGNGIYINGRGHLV
measurementProtocol: cell-based or functional assay
Please note: rule met applies when Cell kill IC50, SKBR3 is 10 nM or greater, and rule not met applies otherwise.

Some solved cases for reference:
binder	cat
Nectin-4 5D9 VH5/VL1 (antibody, V domains shown, Humanized; also called 5D9 VH variant 5 / 5D9 VL variant 1) VH: QVQLQESGPGLVKPSETLSLTCTVSGGSLTNYGVHWVRQPPGKGLEWIGVIWSGGSTNYNPSLKSRVTISRDTSKNQVSLKLSSVTAADTAVYYCARSGKWYYFDYWGQGTLVTVSS VL: DIQMTQSPASLSASVGDTVTITCRASQNIYSNLAWYQQKQGKSPQLLVYAATNLADGVPSRFSGSGSGTQYTLKINSLQSEDFGTYYCQHFWGTPTFGGGTKVEIK	rule met
Nectin-4 5D9 VH2/VL1 (antibody, V domains shown, Humanized; also called 5D9 VH variant 2 / 5D9 VL variant 1) VH: QVQLQESGPGLVKPSETLSLTCTVSGFSITNYGVHWIRQPPGKGLEWLGVIWSGGSTDYNASLVSRVTISRDTSKSQFFLKLNSVQADDTAVYYCARSGKWYYFDYWGQGTTVTVSS VL: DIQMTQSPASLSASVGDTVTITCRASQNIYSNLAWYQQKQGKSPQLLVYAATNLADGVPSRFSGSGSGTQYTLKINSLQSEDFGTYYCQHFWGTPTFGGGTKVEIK	rule met

QUERY: In plain terms: is recorded Cell kill IC50, SKBR3 at least 10 nM for Nectin-4 5D9H/5D9L (recombinant chimeric antibody) (antibody, V domains shown, also called Nectin-4 5D9 chimeric mAb) VH: QVQLKQSGPGLVQPSQSLSITCTVSGFSLTNYGVHWVRQSPGKGLEWLGVIWSGGSTDYNAAFVSRLSISRDNSKSQVFFKMNSLQADDTAIYYCARSGKWYYFDYWGQGTTLTVSS VL: DIQMTQSPASLSVSVGETVTITCRASENIYSNLAWYQQKQGKSPQLLVYAATNLADGVPSRFSGSGSGTQYSLKINSLQSEDFGSYYCQHFWGTPTFGGGTKLEIK ?
RESULT: rule not met

QUERY: Moving on to Nectin-4 5D9 VH3/VL4 (antibody, V domains shown, Humanized; also called 5D9 VH variant 3 / 5D9 VL variant 4) VH: QVQLQESGPGLVKPSETLSLTCTVSGGSITNYGVHWIRQPPGKGLEWLGVIWSGGSTDYNPSLKSRVTISVDTSKNQFSLKLSSVTAADTAVYYCARSGKWYYFDYWGQGTLVTVSS VL: DIQMTQSPSSLSASVGDRVTITCRASENIYSNLAWYQQKPGKAPKLLVYAATNLADGVPSRFSGSGSGTDYTLTISSLQPEDFATYYCQHFWGTPTFGGGTKVEIK
RESULT: rule met

QUERY: Moving on to Nectin-4 5D9 VH5/VL2 (antibody, V domains shown, Humanized; also called 5D9 VH variant 5 / 5D9 VL variant 2) VH: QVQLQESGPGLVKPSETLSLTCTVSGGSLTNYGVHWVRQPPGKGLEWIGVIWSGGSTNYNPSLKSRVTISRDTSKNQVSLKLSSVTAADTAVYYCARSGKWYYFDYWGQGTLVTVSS VL: DIQMTQSPSSLSASVGDTVTITCRASQNIYSNLAWYQQKQGKAPKLLVYAATNLADGVPSRFSGSGSGTDFTLKINSLQPEDFATYYCQHFWGTPTFGGGTKVEIK
RESULT: rule met
